# Test system: 282377-053-R-J1-PDC complex spheroid viability;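 further: spheroids exposed to compounds for seven days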
# test: Anticancer human tumor 282377-053-R-J1-PDC patient-derived colon adenocarcinoma cell line growth inhibition [POLQ]
# test-context: curve of first compound; second compound 0.0316 µM
readout-name: pIC50
Interpret pIC50 as the negative base-10 log of the concentration measured in mol/L.

Need pIC50, item CC1COCCN1c1cc(-c2ccnn2C)c2ccnc(-c3ccn[nH]3)c2n1 (stereo not given) + Cc1cccc(N(C)C(=O)C2C(O)CCN2c2nc(C)cc(C(F)(F)F)c2C#N)c1
6.42

Need pIC50, item COc1cccc(OCCCN)c1-c1cc(Nc2cnc(C#N)cn2)n[nH]1 + Nc1ccc(C#CCN(C(=O)Cc2ncc(C(F)(F)F)cc2C(F)(F)F)c2ccc(F)cc2)nn1
6.43

Need pIC50, item COc1cccc(OCCCN)c1-c1cc(Nc2cnc(C#N)cn2)n[nH]1 + COC1C(OC(N)=O)C(O)C(Oc2ccc3c(O)c(NC(=O)c4ccc(O)c(CC=C(C)C)c4)c(=O)oc3c2C)OC1(C)C
6.91

Need pIC50, item COc1cccc2c1C(=O)c1c(O)c3c(c(O)c1C2=O)CC(O)(C(=O)CO)CC3OC1CC(N)C(O)C(C)O1 (stereo not given) + Nc1ccc(C#CCN(C(=O)Cc2ncc(C(F)(F)F)cc2C(F)(F)F)c2ccc(F)cc2)nn1
5.71

Need pIC50, item CC1COCCN1c1cc(-c2ccnn2C)c2ccnc(-c3ccn[nH]3)c2n1 (stereo not given) + Nc1ccc(C#CCN(C(=O)Cc2ncc(C(F)(F)F)cc2C(F)(F)F)c2ccc(F)cc2)nn1
5.67
